Origin of the recorded values: ChEMBL document CHEMBL2331165

- experimentNotes: Myocardial activity in Wistar-Kyoto rat left atrium exposed to electrical stimulation driven at 2 Hz assessed as muscle contraction at 10 uM relative to untreated control
- Assay type: functional, Muscle tissue

>  <smilesNotation>
CCCN1CCc2cc(OC)c(O)c3c2[C@H]1Cc1cc(OC)c(OC)cc1-3

>  <Activity, %>
105

$$$$
>  <smilesNotation>
COc1cc2c(cc1OC)-c1c(O)c(OC)cc3c1[C@H](C2)N(C)CC3

>  <Activity, %>
180

$$$$
>  <smilesNotation>
COc1cc2c(cc1OC)-c1c(O)c(OC)cc3c1[C@@H](C2)N(C)CC3

>  <Activity, %>
103

$$$$
>  <smilesNotation>
COc1cc2c(cc1OC)-c1c(O)c(OC)cc3c1[C@@H](C2)NCC3

>  <Activity, %>
104

$$$$
>  <smilesNotation>
CCCN1CCc2cc(OC)c(O)c3c2[C@@H]1Cc1cc(OC)c(OC)cc1-3

>  <Activity, %>
90

$$$$
>  <smilesNotation>
COc1cc2c(cc1OC)-c1c(O)c(OC)cc3c1[C@H](C2)NCC3

>  <Activity, %>
93

$$$$
>  <smilesNotation>
CCN1CCc2cc(OC)c(O)c3c2[C@@H]1Cc1cc(OC)c(OC)cc1-3

>  <Activity, %>
122

$$$$
